Recorded values, source patent US9198422B2.

# reported mortality at 10 ppm; entries follow
Tested on: Bemisia argentifolii
Test: B.3 Silverleaf whitefly, adult, spray test on cotton plants
Format: in vivo
Settings: 72 h, 10 ppm, 3 days after treatment, read-out: mortality in comparison with untreated controls
readout.name: mortality at 10 ppm

>>> value_measured("CCN(C(=O)c1cnn(C(C)C(F)F)c1C)c1ccnnc1 (stereo not drawn)")
"≥ 75%"
>>> value_measured("Cc1c(C(=O)Nc2ccnnc2)cnn1C(C)(C)C#N")
"≥ 75%"
>>> value_measured("CCN(C(=O)c1cnn(C(C)C(C)C)c1C)c1ccnnc1 (stereo not drawn)")
"≥ 75%"
>>> value_measured("Cc1c(C(=O)N(C)c2cccnc2)cnn1CC(F)(F)F [#173 in WO09/027393, reference compound]")
"25%"
>>> value_measured("CCN(C(=O)c1cnn(C(C)C2(C#N)CC2)c1C)c1ccnnc1 (stereo not drawn)")
"≥ 75%"
>>> value_measured("Cc1c(C(=O)N(C)c2cccnc2)cnn1C(C)C(F)(F)F (stereo not drawn)")
"≥ 75%"
